Consider the following sequences; for each one, report its self-aminoacylation.
# Test system: biotinyl-Val-oxazolone
# testDescription: self-aminoacylation, catalytic enhancement (BVO) (fold over background); higher = more active; k-Seq, kA / k0A0; sequences stand for … in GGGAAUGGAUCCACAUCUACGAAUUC…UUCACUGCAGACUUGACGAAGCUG
This sample holds only a part of the variants without activity.
Answer field: number only, no words.

Report self-aminoacylation from biotinyl-Val-oxazolone testing of AUGCAGCUAGGUCAUCGGGUG [Fam2.2 aminoacylation ribozyme variant]
3.61

Report value only: self-aminoacylation, biotinyl-Val-oxazolone, AUCCACCAAGGUCAUCGGGUG [Fam2.2 aminoacylation ribozyme variant]
6.37

Fill in self-aminoacylation for CUACUUCAAAGAAUCGGUCGG [Fam1A.1 aminoacylation ribozyme variant] tested with biotinyl-Val-oxazolone.
0.795

Please respond with reported self-aminoacylation (system biotinyl-Val-oxazolone) for AUUCACGGAGGUCAUCGGGUG [Fam2.2 aminoacylation ribozyme variant] .
6.35

Retrieve self-aminoacylation on biotinyl-Val-oxazolone; query AAAUUUCCUAAUAGUCGCAAG [Fam3.1 aminoacylation ribozyme variant]
1.09

Please report the measured self-aminoacylation for CUACUUCACACAAUCGGUCUU [Fam1A.1 aminoacylation ribozyme variant] tested on biotinyl-Val-oxazolone.
0.85

Jot down self-aminoacylation (biotinyl-Val-oxazolone) of UUUACCCUGGUCAUCAAGUGA [Fam2.1 aminoacylation ribozyme variant] .
1.63

Please report self-aminoacylation with biotinyl-Val-oxazolone for item CCACAGUUCAAGCAAUCAGUC [Fam1B.1 aminoacylation ribozyme variant] .
0.781

Determine reported self-aminoacylation for AAGUUUACUAAUAGUCGCGAG [Fam3.1 aminoacylation ribozyme variant] ; test system: biotinyl-Val-oxazolone.
1.22

---

# Tested on: biotinyl-Trp-oxazolone
# testDescription: self-aminoacylation, catalytic enhancement (BWO) (fold over background); higher = more active; k-Seq, kA / k0A0; sequences stand for … in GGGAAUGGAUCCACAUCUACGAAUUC…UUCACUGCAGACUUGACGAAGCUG
This sample holds only a part of the variants without activity.
measuredQuantity: self-aminoacylation
Output: the number by itself.

Using the record for AUUCAACUAGGUCAUCUGGUG [Fam2.2 aminoacylation ribozyme variant] , state its measured self-aminoacylation.
2.54

Indicate the recorded self-aminoacylation value for this sequence: AAGUUUGCUCAUAGUUGCAAG [Fam3.1 aminoacylation ribozyme variant]
0.888

Write down self-aminoacylation measured for item CCUCACUUUAAGCAAUCGGUC [Fam1B.1 aminoacylation ribozyme variant]
0.683

Give self-aminoacylation for the following sequence: AUUCACCUAGGAUAUCGGGUG [Fam2.2 aminoacylation ribozyme variant]
5.47

Identify the reported self-aminoacylation for the following entry. AUUCCCCUAUGUCAUCGGGUG [Fam2.2 aminoacylation ribozyme variant]
18.4

Return self-aminoacylation (reported value) for this sequence: AUUACCCUAGUCAUCGAAUGA [Fam2.1 aminoacylation ribozyme variant]
0.469

Answer with reported self-aminoacylation of AAGUUUGCUAAUCUUCGCAAG [Fam3.1 aminoacylation ribozyme variant]
1.19

Determine from records and report self-aminoacylation for GGACUUCAAACAAUCGGUCUG [Fam1A.1 aminoacylation ribozyme variant]
47.1

Give the measured self-aminoacylation for AACUUUGCAAAUAGUCGCAAG [Fam3.1 aminoacylation ribozyme variant]
1.99

Let me know recorded self-aminoacylation for AUUGACCUAAGUCAUCGGGUG [Fam2.2 aminoacylation ribozyme variant] , thanks.
9.4

For CCACAUUUCAAGCAUUCGGUC [Fam1B.1 aminoacylation ribozyme variant] , write its self-aminoacylation.
1.56

Item AUUACUCUGGUCAACGAGUGA [Fam2.1 aminoacylation ribozyme variant] : provide self-aminoacylation
7.22

Specify self-aminoacylation for AUUACCCUGGUCAGCGAAUGA [Fam2.1 aminoacylation ribozyme variant] and stop.
1.38

Kindly indicate its recorded self-aminoacylation. Item: AUUCACCUAGGUCAUCCGGUA [Fam2.2 aminoacylation ribozyme variant]
1.87

Answer with the recorded self-aminoacylation of AAGUUUGCUAAGAGUCGCAAU [Fam3.1 aminoacylation ribozyme variant] only.
1.74

Please look at this sequence and report its self-aminoacylation: AUUCAUCUAGGUCAUAGGGUG [Fam2.2 aminoacylation ribozyme variant]
2.83

# return recorded self-aminoacylation for entry AUUACCCCAGUCAUCGAGUGA [Fam2.1 aminoacylation ribozyme variant]
6.76

Return self-aminoacylation (reported value) for this sequence: AUUCACCUCGGUCAUCGGGCG [Fam2.2 aminoacylation ribozyme variant]
2.32

Indicate the recorded self-aminoacylation value for this sequence: AGGUUUGCUGAUAGUCGCAAG [Fam3.1 aminoacylation ribozyme variant]
1.83

Kindly indicate its recorded self-aminoacylation. Item: CUACUUCAAGCAAUCGGUCUA [Fam1A.1 aminoacylation ribozyme variant]
4.06

// Input: CCACACUUCAGUCAAUCGGUC [Fam1B.1 aminoacylation ribozyme variant] . Output its self-aminoacylation only.
1.31

Kindly indicate its recorded self-aminoacylation. Item: CCACACUUCAAGCUAUCGGUA [Fam1B.1 aminoacylation ribozyme variant]
1.29

Name the recorded self-aminoacylation of the item ACGAUUGCUAAUAGUCGCAAG [Fam3.1 aminoacylation ribozyme variant] in your answer.
0.96

Read off the recorded self-aminoacylation for CUACUUCAAAUAAUCGGUCUC [Fam1A.1 aminoacylation ribozyme variant]
7.99

Please list self-aminoacylation recorded for the sequence AAGUUUGCUGAUAGUCCCAAG [Fam3.1 aminoacylation ribozyme variant]
1.08

Specify self-aminoacylation for CCUCACUUCCAGCAAUCGGUC [Fam1B.1 aminoacylation ribozyme variant] and stop.
0.965

Give the reported self-aminoacylation for this sequence. AUUCACCUAGCUCACCGGGUG [Fam2.2 aminoacylation ribozyme variant]
2.11

Consider the sequence AUUACCCAGGUCAUCGAGUUA [Fam2.1 aminoacylation ribozyme variant] . State its measured self-aminoacylation.
1.32

Tell us which self-aminoacylation value is on record for CUUACCCUGGUCAUCGAGUGU [Fam2.1 aminoacylation ribozyme variant]
25.6

Please list self-aminoacylation recorded for the sequence AUUAUCGUGGUCAUCGAGUGA [Fam2.1 aminoacylation ribozyme variant]
5.66

Kindly indicate its recorded self-aminoacylation. Item: CUAUUUCAAAUAAUCGGUCUG [Fam1A.1 aminoacylation ribozyme variant]
2.2

Specify reported self-aminoacylation for the sequence shown: AUUACCUUGGUUAUCGAGUGA [Fam2.1 aminoacylation ribozyme variant]
9.73

Report self-aminoacylation for AGGUUUGCUAAUAGUCCCAAG [Fam3.1 aminoacylation ribozyme variant]
1.97

Write down self-aminoacylation measured for item CCACAGUUCAAGCAAUCGGUC [Fam1B.1 aminoacylation ribozyme variant]
3.69

Give self-aminoacylation for AAGUUUGCUUAUAGUCGCCAG [Fam3.1 aminoacylation ribozyme variant]
1.08

---

# Tested on: biotinyl-Leu-oxazolone
# testDescription: self-aminoacylation, catalytic enhancement (BLO) (fold over background); higher = more active; k-Seq, kA / k0A0; sequences stand for … in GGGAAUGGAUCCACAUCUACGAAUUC…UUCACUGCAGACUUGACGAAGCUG
This sample holds only a part of the variants without activity.
Give measured self-aminoacylation for each item. Keep answers brief.
API note: the answer field is a bare number with no unit suffix.

Enter measured self-aminoacylation, system biotinyl-Leu-oxazolone, for the sequence shown: AGUCACUUAGGUCAUCGGGUG [Fam2.2 aminoacylation ribozyme variant]
6.96

State measured self-aminoacylation of the sequence CUACUUCAAUCGAUCGGUCUG [Fam1A.1 aminoacylation ribozyme variant] with biotinyl-Leu-oxazolone.
0.634

State, for biotinyl-Leu-oxazolone, measured self-aminoacylation of the sequence listed here: AUUACCCUGGCCACCGAGUGA [Fam2.1 aminoacylation ribozyme variant]
5.59

Look up biotinyl-Leu-oxazolone data: self-aminoacylation of AUUCACCUAGGUACUCGGGUG [Fam2.2 aminoacylation ribozyme variant] , then report it.
3.3

Report self-aminoacylation from biotinyl-Leu-oxazolone testing of AUUACCCUGGUCAUCCAGUGA [Fam2.1 aminoacylation ribozyme variant]
5.76

---

Please respond with reported self-aminoacylation for every item in the list.
# Tested on: biotinyl-Val-oxazolone
# testDescription: self-aminoacylation, catalytic enhancement (BVO) (fold over background); higher = more active; k-Seq, kA / k0A0; sequences stand for … in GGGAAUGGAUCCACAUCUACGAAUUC…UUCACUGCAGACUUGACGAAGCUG
Variants at the floor of the assay were thinned out.
Please give the numeric answer without any surrounding text.

Given CCACACUUCAAGCAAUCCGGC [Fam1B.1 aminoacylation ribozyme variant] , respond with its self-aminoacylation.
3.66

Check the records and state self-aminoacylation for AAGUUUCCUAAUAGUCGCGAG [Fam3.1 aminoacylation ribozyme variant]
2.48

Tell me self-aminoacylation reported for CUAGCUCAAACAAUCGGUCUG [Fam1A.1 aminoacylation ribozyme variant]
0.914

Identify measured self-aminoacylation associated with AUUGACCUAGGUCAUAGGGUG [Fam2.2 aminoacylation ribozyme variant]
1.46

Using known records, supply self-aminoacylation for CUUCUUCAAACAAUCGGUCGG [Fam1A.1 aminoacylation ribozyme variant]
0.789

Check the records and state self-aminoacylation for CUACUUCCAACAAUCGGUCAG [Fam1A.1 aminoacylation ribozyme variant]
0.774

Quote self-aminoacylation reported for AUUAACCUAGGUUAUCGGGUG [Fam2.2 aminoacylation ribozyme variant] please.
2.19

Let me know recorded self-aminoacylation for ACACACUUCAAGCAAUCGGCC [Fam1B.1 aminoacylation ribozyme variant] , thanks.
2.57

Source: the supplement of paper PMC9233669
